Target: human SCD1 (Homo sapiens, UniProt O00767)
Construct: expressed in transfected cells; host or cells: yeast strain with OLE1 deleted, plasmid-borne human SCD1 (selected in SD-Ura)
Sequence (O00767 1-359): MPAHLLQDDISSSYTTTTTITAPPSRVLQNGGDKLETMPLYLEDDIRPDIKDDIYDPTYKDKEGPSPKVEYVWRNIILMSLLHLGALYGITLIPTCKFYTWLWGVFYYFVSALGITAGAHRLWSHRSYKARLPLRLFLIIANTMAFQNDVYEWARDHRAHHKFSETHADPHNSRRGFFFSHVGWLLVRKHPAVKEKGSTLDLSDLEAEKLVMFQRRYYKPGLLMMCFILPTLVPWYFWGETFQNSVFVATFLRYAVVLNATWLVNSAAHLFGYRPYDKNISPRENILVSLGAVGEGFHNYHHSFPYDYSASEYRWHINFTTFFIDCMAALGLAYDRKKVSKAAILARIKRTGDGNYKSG
Test: Growth inhibition of yeast strain expressing human SCD1 as sole desaturase (OLE1 deleted), OD600 readout
Assay type: cell-based
Details: yeast strain expressing human SCD1 as sole desaturase; growth (OD600) after 40 h at 30° C.; read-out: SCD1 IC50
Entries and their measured IC50 follow.
Expressed in µM, but write only the number.

CN1N=C(C(=O)Nc2ccc(Cc3cc(F)cc(Cl)c3)cn2)CCC1=O | 1.95
O=C(Nc1ccc(Cc2cccc(Cl)c2)cn1)c1ccc([C@@H](O)CO)nc1 | 0.28
O=C(Nc1ccc(Cc2cccc(Cl)c2)cn1)c1cnc(CO)nc1 | 0.01

Then there is this molecule:
## Task Suppose we examine the molecule `Cn1cc(C(=O)Nc2nnc(Cc3cc(F)cc(Cl)c3)s2)ccc1=O` ; what IC50 value has been reported?
## Result 1.07
